- System: Aspc-1 Human pancreatic cancer cells
- Experiment Summary: MTT cell proliferation inhibition, Aspc-1
- Type: cell-based
- Condition Summary: ASPC1, Aspc-1, 72 hours
Reported IC50 values follow for various compounds
Please reply with the bare figure in µM and do not write the unit itself.

smiles_representation=O=C(/C=C/CN1CCCC1)Nc1cc2cc(c1)Nc1nccc(n1)-c1cccc(c1)COC/C=C/COC2 endpoint_value=0.689

Now for the compound whose IC50 we want.
**Q:** Looking for the measured IC50 of O=C(/C=C/CN1CCOCC1)Nc1cc2cc(c1)Nc1nccc(n1)-c1cccc(c1)COC/C=C/COC2 , can you help?
**A:** 2.48
